- System: MCF7 breast
- ASSAY: NCI-60 one-dose screen, 48 h (100 = growth as untreated, 0 = no growth, -100 = all killed)
- CONDITION CONTEXT: 10 µM unless noted
Compounds without any hit were thinned out: in the full panel of roughly 83,000, 20% have a hit.

[
  {
    "MOLECULE": "Cc1ccc(S(=O)(=O)OCCCOS(=O)(=O)c2ccc(C)cc2)cc1",
    "MEASUREMENT UNITS": "%",
    "growth": 91.2
  },
  {
    "MOLECULE": "C/C(=N\\O)c1ccc(NC(=O)CSc2nnc(-c3cc(-c4ccc(S(C)(=O)=O)cc4)nc4ccccc34)n2-c2ccccc2)cc1",
    "MEASUREMENT UNITS": "%",
    "growth": 85.6
  },
  {
    "MOLECULE": "Clc1ccc(-c2cc(-c3ccccc3)nc(NCCNc3ccnc4cc(Cl)ccc34)n2)cc1",
    "MEASUREMENT UNITS": "%",
    "growth": -76.8
  },
  {
    "MOLECULE": "N#Cc1c(Nc2ccc(N3CCOCC3)cc2)nc(SCC(=O)c2ccc(Br)cc2)nc1-c1ccccc1",
    "MEASUREMENT UNITS": "%",
    "growth": 94.8
  },
  {
    "MOLECULE": "COc1cccc(/C=C/C(=O)c2cccc(Nc3nc(Nc4ccccc4)nc(Nc4ccccc4)n3)c2)c1",
    "MEASUREMENT UNITS": "%",
    "growth": 21.9
  },
  {
    "MOLECULE": "O=c1ccc(=O)n(-c2nc(-c3ccc([N+](=O)[O-])cc3)cs2)[nH]1",
    "MEASUREMENT UNITS": "%",
    "growth": 90.1
  },
  {
    "MOLECULE": "O=c1c2c3c(sc2n2c(-c4cc(-c5ccccc5)no4)nnc2n1Cc1ccccc1)CCCC3",
    "MEASUREMENT UNITS": "%",
    "growth": 97.1
  },
  {
    "MOLECULE": "NC(=O)c1cnc(Nc2cccc(N)c2)nc1NCCCNC(=O)C1CCC1",
    "MEASUREMENT UNITS": "%",
    "growth": 74.7
  },
  {
    "MOLECULE": "CCO/C=N/C1=C(C#N)C(c2ccc(F)cc2)c2sc3c(F)cccc3c2O1 (centres undefined)",
    "MEASUREMENT UNITS": "%",
    "growth": 15.7
  }
]

All figures here come from PubChem BioAssay (NCI).
